Reported IC50 against Cytochrome P450 3A4 (Homo sapiens), gathered from multiple publications, appears below.
Sequence (P08684 whole entry): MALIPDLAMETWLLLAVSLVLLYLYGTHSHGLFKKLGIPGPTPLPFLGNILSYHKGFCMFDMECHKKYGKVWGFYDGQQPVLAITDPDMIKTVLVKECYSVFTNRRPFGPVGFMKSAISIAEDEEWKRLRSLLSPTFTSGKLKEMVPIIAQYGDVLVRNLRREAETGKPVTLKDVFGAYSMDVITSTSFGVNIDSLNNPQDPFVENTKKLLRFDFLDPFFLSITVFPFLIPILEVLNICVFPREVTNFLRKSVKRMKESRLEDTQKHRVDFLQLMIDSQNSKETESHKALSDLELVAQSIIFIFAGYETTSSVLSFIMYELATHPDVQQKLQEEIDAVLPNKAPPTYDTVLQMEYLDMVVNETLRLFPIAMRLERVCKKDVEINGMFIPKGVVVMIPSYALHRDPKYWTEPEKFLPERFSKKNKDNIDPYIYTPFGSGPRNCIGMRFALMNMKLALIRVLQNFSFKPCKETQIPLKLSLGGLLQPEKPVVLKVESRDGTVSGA
endpointName: IC50

INSERT INTO measurements (compound, endpointname, observed) VALUES
  ('Cc1cc(OC[P@@]2(=O)OCC[C@@H](c3ccc(Cl)cc3)O2)c2c(c1C)Cc1scnc1-2 (racemic)', 'IC50', '0.65 µM'),
  ('COc1ccc(-c2cccc(C(O)(c3c[nH]cn3)C(C)C)c2)cc1 (racemic)', 'IC50', '2 µM'),
  ('COc1cccc(-c2c(C)n(Cc3c(F)cccc3C(F)(F)F)c(=O)n(C[C@@H](c3ccccc3)N(C)CCCC(=O)O)c2=O)c1F', 'IC50', '69 µM'),
  ('COCc1cnc(N2CCC([C@H]3C[C@H]3CCOc3cc(F)c(CC(=O)N4CCC4)c(F)c3)CC2)nc1', 'IC50', '> 50 µM'),
  ('O=C(CCc1ccccc1)N1CCC2(CCc3cc(F)ccc3O2)CC1', 'IC50', '> 10 µM'),
  ('CNC(=O)[C@@]12C[C@@H]1[C@@H](n1cnc3c(NC)nc(C#Cc4cnccn4)nc31)[C@H](O)[C@@H]2O', 'IC50', '> 10 µM'),
  ('COc1ccccc1COCCCOc1ccc(N2C(=O)CNC[C@@H]2CSc2ccc3c(c2)N(CC(=O)O)C(=O)CO3)cc1', 'IC50', '15 µM'),
  ('CN(C)C(=O)c1c(N)ccc(-c2cnc3c(c2Cl)C2(CCCC2)CN3)c1F', 'IC50', '0.8 µM'),
  ('CC(C)CN(C[C@@H](O)[C@H](Cc1ccccc1)NC(=O)OCc1cncs1)C(=O)c1ccc2ncoc2c1', 'IC50', '0.055 µM'),
  ('CC(C)c1nc(CN(C)C(=O)N[C@H](C(=O)N(CCCCN(Cc2ccccc2)C(=O)OCc2cncs2)Cc2ccccc2)C(C)C)cs1', 'IC50', '0.24 µM'),
  ('CO[C@H]1CC[C@@H](n2nc(C)c(C(=O)N[C@@H](C)C(C)(C)C)c2NS(=O)(=O)c2ccc(C)cc2)CC1', 'IC50', '> 10 µM'),
  ('COc1ccccc1/C=C/C(=O)c1cccnc1', 'IC50', '1.52 µM'),
  ('Cn1c2c(c(=O)n(C)c1=O)C(C(F)(F)F)(C(F)(F)F)N=C(c1cccc([N+](=O)[O-])c1)N2', 'IC50', '> 30 µM'),
  ('O=C(N[C@H]1C2CC3CC1C[C@](O)(C3)C2)N1CCN(c2ccc(N3CCN(S(=O)(=O)C4CC4)CC3)cn2)c2ccccc21', 'IC50', '> 10 µM'),
  ('COc1ccc(-c2nc(C(=O)NCc3ccc(F)cc3F)c([C@H](C)N)o2)c2ccc(C(F)(F)F)nc12', 'IC50', '> 8 µM'),
  ('Cc1cc(N2CCc3c(c(C)nn3CC34CCC(NC(=O)[C@@H]5CNCCO5)(CC3)CC4)C2)c2cnn(C)c2n1', 'IC50', '5.5 µM'),
  ('Cc1c(-c2ccccc2)nc2ccc(Br)cc2c1C(=O)Nc1ccc(C(=O)O)cc1F', 'IC50', '> 20 µM'),
  ('COc1cccc(C(=O)c2ccc3ccc(C(=O)O)ccc2-3)c1', 'IC50', '> 50 µM'),
  ('CC(C)S(=O)(=O)NC1Cc2ccc(-c3ccc(F)cn3)cc2C1 (stereo not drawn)', 'IC50', '> 10 µM'),
  ('CN[C@H](CNc1cc(F)c(S(=O)(=O)Nc2ncc(F)s2)cc1Cl)CC(C)(C)C.Cl', 'IC50', '> 50 µM'),
  ('O=C(N[C@H]1CCN(Cc2ccc(OC3CCNCC3)c(Br)c2)C1)c1ccc(Cl)c(Cl)c1', 'IC50', '1.9 µM'),
  ('CN1CCN(c2cccc3c2C[C@H](CN(C)[C@H]2CCCc4cccnc42)N(C)C3)CC1', 'IC50', '> 20 µM'),
  ('CCOC(=O)c1[nH]cc2c1NC1=C(C(=O)CN(C(=O)CN)C1)[C@H]2c1ccc(Sc2nc3ccccc3[nH]2)o1', 'IC50', '0.5 µM'),
  ('COc1cc2c(cc1OC)CN(CCc1ccc(-n3nnc(-c4cc(OC)c(OC)cc4NC(=O)c4cc(=O)c5cc(Br)ccc5o4)n3)cc1)CC2', 'IC50', '> 9 µM'),
  ('C[C@@]12C[C@H](c3ccoc3)OC(=O)[C@@H]1[C@@H](O)C[C@]1(C)[C@H]2[C@@H]2OC(=O)[C@@]1(O)[C@H]1O[C@@H]21', 'IC50', '> 100 µM'),
  ('C[C@H]([C@@H](c1ccc2cc(OCC3(C(=O)O)CCOCC3)ccc2c1)n1ccnc1)N(C)C', 'IC50', '> 20 µM'),
  ('CN([C@@H]1CCC2=C(C1)C1C=CC=CC1N2CC(=O)O)S(=O)(=O)c1ccc(F)cc1 (stereo partly drawn)', 'IC50', '> 30 µM'),
  ('Cc1cc(C(=O)NC2CCCC2)cc2[nH]c(-c3c(NCC(O)c4cccc(Cl)c4)cc[nH]c3=O)nc12 (stereo not drawn)', 'IC50', '1.6 µM'),
  ('Cc1cccc2c1c(=O)n(C[C@H]1CC[C@H](C(=O)O)CC1)c(=O)n2Cc1cccc(C(F)(F)F)c1C#N', 'IC50', '> 100 µM'),
  ('CN(C[C@H]1Cc2c(cccc2N2CCN(c3ncccn3)CC2)CN1)[C@H]1CCCc2cccnc21', 'IC50', '3.35 µM'),
  ('COc1cccc(CN(C)C(=O)Nc2ccc(-c3cn[nH]c3)cc2)c1', 'IC50', '> 100 µM'),
  ('CC(C)=CCn1c(N2CCCNCC2)c(C#N)c2c1c(=O)n(Cc1ncc3ccccc3c1C#N)c(=O)n2C', 'IC50', '≤ 3 µM'),
  ('Cc1cc(F)c(-c2ccnn(C)c2=O)cc1NC(=O)C1=CN(C)C(=O)C[C@H]1c1ccc(F)cc1', 'IC50', '> 32 µM');
